# System: OVCAR-5 ovarian
# procedure.text: NCI tumour cell line growth inhibition, 48 h
// values below are reported GI50

Worked examples, 2 compounds total:
compound.structure.string | experimental.value
COc1cccc2c1c(C1=C(c3cn(C)c4ccccc34)C(=O)NC1=O)cn2C | > 25 µM
C[n+]1ccc(-c2c3nc(c(-c4cc[n+](C)cc4)c4ccc([n-]4)c(-c4cc[n+](C)cc4)c4nc(c(-c5cc[n+](C)cc5)c5ccc2[n-]5)C=C4)C=C3)cc1.[I-].[Zn+2] | > 100 µM

Query block: Need GI50, item CCCCN(CCCC)CCCn1c(=O)c2c3ccccc3n(C)c2n2nnc(-c3ccccc3)c12
Result block: 22.3 µM

---

# Test system: SF-539 CNS
# procedure.text: NCI tumour cell line growth inhibition, 48 h
This listing pairs compounds with measured GI50.

compound | GI50
Cc1cc(Oc2ccc3nc(COc4ccc(CC5SC(=O)NC5=O)cc4)n(C)c3c2)cc(C)c1N (stereo not given) | 43.3 µM
CN1CC(CNC(=O)OCc2ccccc2)CC2c3cccc4c3c(cn4C)CC21 (stereo not given) | 1.64 µM
C[C@H](CCCNCCCNCCCN)[C@H]1CC[C@H]2[C@@H]3[C@H](OCCCN)C[C@H]4C[C@H](OCCCN)CC[C@]4(C)[C@H]3C[C@H](OCCCN)[C@]12C | 0.98 µM
COc1cc(OC)c(NC(=O)c2cc3ccccc3cc2O)cc1Cl | 3.04 µM

With those in mind, consider the next compound.
Query block: Need GI50 of O=C1OC(c2ccccc2)(c2cc(Br)c(O)c(Br)c2)c2ccccc21 (stereo not given) , thanks.
Result block: 26.6 µM

---

// values below are reported TGI
# Tested on: DMS 114 small cell lung
# procedure.text: NCI tumour cell line growth inhibition, 48 h

For orientation, consider the following solved cases.
compound | TGI
c1ccc2c(c1)[nH]c1c2nc2ncccn21 | > 100000 nM
COc1cc(O)c2c(c1)C(=O)c1cc3c(c(O)c1C2=O)C(OC1OC(C)C(O)C(O)C1OC)C(OC)C(C)(O)C3=O (centres undefined) | 5240 nM
CCC[CH2][Sn]1([CH2]CCC)[O]C(=O)c2ccc(C)cc2[O]1 | 587 nM

Pending compound:
Query block: I am curious: what TGI value has been reported for COc1c(C)cc2c(c1O)C1NC(C2)[C@H](O)N2C3COC(=O)[C@@]4(CS[C@@H](c5c(OC(C)=O)c(C)c6c(c53)OCO6)C12)NCCC1=C4NC2C=CC=CC12 (some centres undefined) ?
Result block: < 10 nM

---

# Tested on: U251 CNS
Classes to choose from: active, inactive

molecule | label.value
CCc1ccc2c(c1)N(CCO)C1=C(C(=O)OC1)C2c1cccc(Cl)c1 (stereo not given) | inactive

Query block: # outcome recorded in this test, key = CCCCN(CCCC)CCCn1c(=O)c2c3ccccc3n(C)c2n2nnc(-c3ccccc3)c12
Result block: inactive

Query block: Field: outcome | Entry: COc1cccc2c1c(C1=C(c3cn(C)c4ccccc34)C(=O)NC1=O)cn2C
Result block: inactive

Query block: What was the test verdict on C[n+]1ccc(-c2c3nc(c(-c4cc[n+](C)cc4)c4ccc([n-]4)c(-c4cc[n+](C)cc4)c4nc(c(-c5cc[n+](C)cc5)c5ccc2[n-]5)C=C4)C=C3)cc1.[I-].[Zn+2] ?
Result block: inactive

Query block: Hey, what did the test say about CCC[CH2][Sn]1([CH2]CCC)[O]C(=O)c2ccc(C)cc2[O]1 ?
Result block: active

---

# Test system: TK-10 renal
# procedure.text: NCI tumour cell line growth inhibition, 48 h
property.name: GI50

Query block: // query GI50 value for entry C[n+]1ccc(-c2c3nc(c(-c4cc[n+](C)cc4)c4ccc([n-]4)c(-c4cc[n+](C)cc4)c4nc(c(-c5cc[n+](C)cc5)c5ccc2[n-]5)C=C4)C=C3)cc1.[I-].[Zn+2]
Result block: 15.2 µM

Query block: May I ask what GI50 has been recorded for Cc1cn2c(/C=N/N=C(N)N)c(-c3cccnc3)nc2s1 ?
Result block: 6.85 µM

Query block: Which measured GI50 value corresponds to O=C(/C(=C/c1ccc([N+](=O)[O-])cc1)SCc1ccc(F)cc1)c1ccc(Cl)cc1 ?
Result block: 20.1 µM

Query block: Fill in: GI50 of OCC1OC(n2cnc3c(Cl)nc(Cl)cc32)C(O)C1O (centres undefined) is ___
Result block: > 100 µM

---

# System: U251 CNS
# procedure.text: NCI tumour cell line growth inhibition, 48 h
Readings of TGI for the listed compounds
Field: numeric (µM). Do not append units.

Answered cases to consult:
compound | TGI [µM]
Cn1/c(=N\N=C(\CNCCO)[C@@H](O)[C@@H]2OC(c3ccccc3)OC[C@H]2O)sc2ccccc21 (stereo not given in full) | 31.8
C=C(CN1CCN(c2cccc(C(F)(F)F)n2)CC1)c1ccc(C(=S)Nc2ccccc2N)cc1 | 38.5

Query block: Form field - read-out: TGI; system: U251 CNS; submitted item: N#CS.N=C=S.N=C=S.[Cu+2].[NH2-].[NH2-].[NH2-].[NH2-].c1ccc2ncccc2c1
Result block: 38.1

Query block: Item c1ccc(C(=NNc2cnc3ccccc3n2)c2ccccn2)cc1 with U251 CNS - TGI?
Result block: 23.8

Query block: Request - read-out TGI | tested on U251 CNS | compound O=C(NCc1ccco1)c1ccc(NC2=C(Cl)C(=O)N(Cc3ccccc3)C2=O)cc1
Result block: 44.9

Query block: Lab request: please report TGI under test system U251 CNS for C/C(=N\NC(=S)N(C)CCN(C)C(=S)N/N=C(\C)c1ccccn1)c1ccccn1
Result block: 18.9

---

# TGI listing for each entry below
# Tested on: MOLT-4 leukemia
# procedure.text: NCI tumour cell line growth inhibition, 48 h

Study these solved cases before continuing.
molecule | TGI
C=C1C(=O)OC2CC1CCC1(C)OC1CCC(C)=CCCC2(C)O (configuration not stated) | 9.2 µM
O=C(Oc1ccc(Cl)cc1[N+](=O)[O-])c1ccccc1 | > 100 µM
CC[C@@H]1C[C@H]2CC3c4[nH]c5ccc(O)cc5c4CCN(C2)C31 | > 100 µM
CC(C)=CCN1c2ccc(Cl)cc2NC(=O)CC1C (configuration not stated) | > 100 µM

Query block: Quick check: TGI of O=C(NC1C2CC3CC(C2)CC1C3)c1cc(/C=C/c2ccccc2)[nH]c(=S)n1 (configuration not stated) ?
Result block: > 100 µM

Query block: Please report the recorded TGI for NC(N)=NS(=O)(=O)c1ccc(Nc2c3ccccc3nc3c(C(=O)Nc4ccc(S(N)(=O)=O)cc4)ccc(Cl)c23)cc1 .
Result block: > 100 µM

Query block: For the molecule shown here, CCCC(=O)O.CCCC(=O)O.CCCC(=O)O.CCCC(=O)O.[Rh].[Rh] , give the reported TGI.
Result block: 0.141 µM

---

Measured TGI accompanies every entry in the list below.
# Test system: 786-0 renal
# procedure.text: NCI tumour cell line growth inhibition, 48 h

Answered examples (3):
molecule | tested.on | TGI
C#CCCCOc1ncccn1 | 786-0 renal | > 100 µM
COC(=O)c1c2c(cc3c1CC1(Cc4cc5c(cc4C1=O)CCC5)C3)CCC2 (centres undefined) | 786-0 renal | > 100 µM
Cc1ccc(C(=O)OCC(C)C)cc1N=NN(C)C | 786-0 renal | > 100 µM

Query block: Consider the molecule CNc1nnc(CNc2ccc(-c3nnc(NC)n3N)cc2)n1N and give its measured TGI.
Result block: > 100 µM

Query block: Would you mind telling me what TGI value was observed for O=C(COc1ccc(Cl)c(Cl)c1)N(Cc1ccccc1)Cc1ccc[n+](Cc2ccc(Cl)cc2S(=O)(=O)F)c1 ?
Result block: > 100 µM

---

Item-by-item account of GI50
# System: NCI/ADR-RES ovarian
# procedure.text: NCI tumour cell line growth inhibition, 48 h

molecule | experimental.value
Cc1ncsc1-c1ccc(CNC(=O)[C@@H]2C[C@@H](O)CN2C(=O)[C@@H](NC(=O)C2(C#N)CC2)C(C)(C)C)cc1 | > 100 µM

Query block: GI50 lookup needed for COC(=O)[C@H](Cc1ccc(O)cc1)NC(=O)[C@@H](OC)[C@@H]1Cc2cc3cc(OC4CC(OC5CC(O)C(O)C(C)O5)C(O)C(C)O4)c(C)c(O)c3c(O)c2C(=O)[C@H]1OC1CC(OC2CC(OC3CC(C)(O)C(O)C(C)O3)C(O)C(C)O2)C(O)C(C)O1 (stereo partly drawn) , thanks.
Result block: > 25 µM

Query block: // GI50 lookup, key: O=c1c2c3c(sc2nc(N/N=C/c2ccc(Br)cc2)n1Cc1ccccc1)CCCC3
Result block: > 100 µM

---

# System: OVCAR-5 ovarian
# procedure.text: NCI tumour cell line growth inhibition, 48 h
Measured TGI by item

compound | TGI
COC(=O)Nc1nc2ccc(NC(=O)c3cccs3)cc2[nH]1 | > 100 µM

Query block: Query: TGI; subject: COc1cccc2c1c(C1=C(c3cn(C)c4ccccc34)C(=O)NC1=O)cn2C
Result block: > 25 µM

Query block: Which TGI is listed for CCCCN(CCCC)CCCn1c(=O)c2c3ccccc3n(C)c2n2nnc(-c3ccccc3)c12 ?
Result block: > 100 µM

Query block: Param item = Cc1ncsc1-c1ccc(CNC(=O)[C@@H]2C[C@@H](O)CN2C(=O)[C@@H](NC(=O)C2(C#N)CC2)C(C)(C)C)cc1 ; retrieve measured TGI.
Result block: > 100 µM

Query block: Consider the compound CCCCC(=O)OC[n+]1ccc2c(C)c3[nH]c4ccccc4c3c(C)c2c1 and give its measured TGI.
Result block: 1.82 µM

Provenance of the data: PubChem BioAssay (NCI)
